Entries and their measured QDIFF, drug dispersion rate in brain and CSF follow.
# PROCEDURE_SUMMARY: Multi-compartmental brain PK model fitted to rat plasma and microdialysis (brainECF, CSF) data
# Assay type: in vivo
# CONDITION: parameter estimate (RSE, %)
REPORTED_METRIC: QDIFF, drug dispersion rate in brain and CSF

[[record]]
compound = "Cc1nc2n(c(=O)c1CCN1CCC(c3noc4cc(F)ccc34)CC1)CCCC2O (centres unmarked) [Paliperidone]"
result_value = "0.0248 (10.7) mL/min"

[[record]]
compound = "O=C1NC(=O)C(c2ccccc2)(c2ccccc2)N1 [Phenytoin]"
result_value = "0.0133 (13.0) mL/min"

[[record]]
compound = "CN(Cc1cnc2nc(N)nc(N)c2n1)c1ccc(C(=O)N[C@@H](CCC(=O)O)C(=O)O)cc1 [Methotrexate]"
result_value = "0.0598 (9.30) mL/min"

[[record]]
compound = "C=C[C@H]1C[N@@]2CC[C@H]1C[C@@H]2[C@@H](O)c1ccnc2ccc(OC)cc12 [Quinidine]"
result_value = "0.0237 (2.40) mL/min"

[[record]]
compound = "CC(=O)Nc1ccc(O)cc1 [Acetaminophen]"
result_value = "0.0556 (10.3) mL/min"


###

# PROCEDURE_SUMMARY: Fraction unbound in plasma (rat data)
# Format: in vitro ADME
# CONDITION: rat pooled plasma, ultrafiltration; read-out: fP (%), free fraction in plasma
REPORTED_METRIC: fraction unbound

[[record]]
compound = "Cc1nc2n(c(=O)c1CCN1CCC(c3noc4cc(F)ccc34)CC1)CCCC2 [Risperidone]"
reported_metric = "fraction unbound"
result_value = 0.07

[[record]]
compound = "Cc1nc2n(c(=O)c1CCN1CCC(c3noc4cc(F)ccc34)CC1)CCCC2O (centres unmarked) [Paliperidone]"
reported_metric = "fraction unbound"
result_value = 0.08


###

# PROCEDURE_SUMMARY: Multi-compartmental brain PK model fitted to rat plasma and microdialysis (brainECF, CSF) data
# Assay type: in vivo
# CONDITION: male, Wistar, plasma, intravenous infusion, parameter estimate (RSE, %), read-out: CLPL, clearance from the central compartment
Entries and their measured clearance follow.
REPORTED_METRIC: clearance (mL/min)

[[record]]
compound = "CN(Cc1cnc2nc(N)nc(N)c2n1)c1ccc(C(=O)N[C@@H](CCC(=O)O)C(=O)O)cc1 [Methotrexate]"
reported_metric = "clearance"
result_value = 8.12

[[record]]
compound = "Cc1nc2n(c(=O)c1CCN1CCC(c3noc4cc(F)ccc34)CC1)CCCC2 [Risperidone]"
reported_metric = "clearance"
result_value = 465

[[record]]
compound = "O=C1NC(=O)C(c2ccccc2)(c2ccccc2)N1 [Phenytoin]"
reported_metric = "clearance"
result_value = 44.7

[[record]]
compound = "Cc1nc2n(c(=O)c1CCN1CCC(c3noc4cc(F)ccc34)CC1)CCCC2O (stereo not shown) [Paliperidone]"
reported_metric = "clearance"
result_value = 192

